experimental target: T1, HLA-A2/E6 (29-38) tetramer (human; HPV 16)
T1 construct: also called E6(29-38) peptide-MHC tetramer; E6(29-38)-loaded tetramer
experiment summary: tetramer flow cytometry; transfected 1:1 CD4+ and CD4+/CD8+ Jurkat-derived cells;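 further: cell mixtures transiently transfected with TCR-encoding plasmids, analysed by flow cytometry 48 h later after HLA-A*02:01 E6 tetramer staining combined with anti-CD8 antibody co-staining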
measured property: % cells in E6 tet+/CD8- quadrant (%)
Numbers only, in %.

Record TCR 16 (codon optimized, cysteine modified version) (TCR, V domains shown) V domain 1: KQEVTQIPAALSVPEGENLVLNCSFTDSAIYNLQWFRQDPGKGLTSLLLIQSSQREQTSGRLNASLDKSSGRSTLYIAASQPGDSATYLCAVRPANNNDMRFGAGTRLTVKP V domain 2: DVKVTQSSRYLVKRTGEKVFLECVQDMDHENMFWYRQDPGLGLRLIYFSYDVKMKEKGDIPEGYSVSREKKERFSLILESASTNQTSMYLCASSLWGRSNQPQHFGDGTRLSILE . Reported % cells in E6 tet+/CD8- quadrant: 28.2
